- Tested on: CYP1A1 mRNA in primary human hepatocytes
- Procedure Text: CYP1A1 mRNA expression in primary human hepatocytes
- Format: cell-based
- Conditions: 50 µM
Result Type: CYP1A1 mRNA fold induction over the vehicle-treated cells, LH45 (fold)

[P] OC[C@H]1O[C@@H](Oc2cc3c(O)cc(O)cc3[o+]c2-c2ccc(O)c(O)c2)[C@H](O[C@@H]2OC[C@@H](O)[C@H](O)[C@H]2O)[C@@H](O)[C@@H]1O.[Cl-] [CYA-8, cyanidin-3-O-sambubioside chloride]
[Q] OC[C@H]1O[C@@H](Oc2cc3c(O[C@@H]4O[C@H](CO)[C@@H](O)[C@H](O)[C@H]4O)cc(O)cc3[o+]c2-c2ccc(O)cc2)[C@H](O)[C@@H](O)[C@@H]1O [PEL-1, pelargonidin-3,5-di-O-glucoside chloride]
# compare CYP1A1 mRNA fold induction over the vehicle-treated cells, LH45 for P vs Q ; return the one with the smaller value Provide the label of your selected option as the answer.
P
(P: 0.20 fold, Q: 1.17 fold)

The origin of these recorded values is paper PMC3759295.
